- Tested on: Escherichia coli IAI1
- assay_details: growth (OD595) fold change vs plate DMSO controls (fold change (ratio)); higher = more growth
- experimental_parameters: incubation time: 27 h, anaerobic, 37 °C
Structures can show the parent of a compound that is named as a salt.
Outcome label depends on growth relative to 1: at/above gives True, below gives False.

{"compound": "CC(=O)N[C@@H](CS)C(=O)O [Acetylcysteine] (20 µM)", "class": "True"}
{"compound": "COC(=O)C1=C(C)NC(C)=C(C(=O)OC(C)C)C1c1cccc2nonc12 (stereo not given) [Isradipine] (20 µM)", "class": "True"}
{"compound": "CC(=O)S[C@@H]1CC2=CC(=O)CC[C@]2(C)[C@H]2CC[C@@]3(C)[C@@H](CC[C@@]34CCC(=O)O4)[C@H]12 [Spironolactone] (20 µM)", "class": "False"}
{"compound": "CC(C)(O/N=C(\\C(=O)N[C@@H]1C(=O)N2C(C(=O)[O-])=C(C[n+]3ccccc3)CS[C@H]12)c1csc(N)n1)C(=O)O [Ceftazidime pentahydrate] (20 µM)", "class": "False"}
{"compound": "COC(=O)[C@@H]1[C@H]2C[C@H]3c4[nH]c5ccccc5c4CCN3C[C@@H]2CC[C@@H]1O [Yohimbine hydrochloride] (20 µM)", "class": "True"}
{"compound": "CCOC(=O)c1ccc(C#Cc2ccc3c(c2)C(C)(C)CCS3)nc1 [Tazarotene] (20 µM)", "class": "False"}
{"compound": "CCN(CCO)CCCC(C)Nc1ccnc2cc(Cl)ccc12 (stereo not given) [Hydroxychloroquine sulfate] (20 µM)", "class": "False"}
{"compound": "OC(CCN1CCCCC1)(c1ccccc1)C1CCCCC1 (stereo not given) [Trihexyphenidyl-D,L hydrochloride] (20 µM)", "class": "True"}
{"compound": "O=c1[nH]c(=O)n([C@H]2C[C@H](O)[C@@H](CO)O2)cc1/C=C/Br [Brivudine] (20 µM)", "class": "True"}

---

- System: Clostridium sporogenes DSM 1664
- assay_details: growth (OD595) fold change vs plate DMSO controls (fold change (ratio)); higher = more growth
- experimental_parameters: incubation time: 27 h, anaerobic, 37 °C
Structures can show the parent of a compound that is named as a salt.
Outcome label depends on growth relative to 1: at/above gives true (1), below gives false (0).

{"molecule": "CC[C@H](c1ccc(O)cc1)[C@@H](CC)c1ccc(O)cc1 [Hexestrol] (20 µM)", "class": "false (0)"}
{"molecule": "COc1ccc(CCC(=O)c2c(O)cc(O[C@@H]3O[C@H](CO)[C@@H](O)[C@H](O)[C@H]3O[C@@H]3O[C@@H](C)[C@H](O)[C@@H](O)[C@H]3O)cc2O)cc1O [Neohesperidin Dihydrochalcone (Nhdc)] (50 µM)", "class": "true (1)"}
{"molecule": "C[C@@H](O[C@H]1OCCN(Cc2n[nH]c(=O)[nH]2)[C@H]1c1ccc(F)cc1)c1cc(C(F)(F)F)cc(C(F)(F)F)c1 [Aprepitant] (20 µM)", "class": "true (1)"}
{"molecule": "Oc1c(Cl)cc(Cl)c(Cl)c1Cc1c(O)c(Cl)cc(Cl)c1Cl (20 µM)", "class": "false (0)"}
{"molecule": "CC(C)=C/C(C)=N/Nc1nncc2ccccc12 [Budralazine] (20 µM)", "class": "true (1)"}
{"molecule": "CC[C@H](C)C(=O)O[C@H]1C[C@H](O)C=C2C=C[C@H](C)[C@H](CC[C@@H](O)C[C@@H](O)CC(=O)O)[C@H]21 [Pravastatin] (20 µM)", "class": "false (0)"}
{"molecule": "CC(=O)[C@H]1CC[C@H]2[C@@H]3C=CC4=CC(=O)CC[C@@]4(C)[C@@H]3CC[C@]12C [Dydrogesterone] (20 µM)", "class": "true (1)"}
{"molecule": "CCOC(=O)c1c(N)sc2c1CCN(Cc1ccccc1)C2 [Tinoridine hydrochloride] (20 µM)", "class": "true (1)"}
{"molecule": "CN1CCCN(C(c2ccccc2)c2ccc(Cl)cc2)CC1 (centres undefined) [Homochlorcyclizine dihydrochloride] (20 µM)", "class": "true (1)"}

Where do these numbers come from? They come from the supplement of paper PMC12494721.
